- measured on: rat maltase (partially purified alpha-glucosidase from intestinal rat powder)
- assay summary: Intestinal alpha-glucosidase assay, maltose substrate (Glucose GO Kit)
measurement type: log10 IC50 (log10 of the value in nM)

INSERT INTO assay_data (compound, measurement_type, value_reported) VALUES
  ('Cc1cc(NCc2cccc(CN3C[C@H](O)[C@@H](O)[C@H](O)[C@H]3CO)n2)cc(N2CCOCC2)c1 [Compound 1336]', 'log10 IC50', 4.00),
  ('[N-]=[N+]=Nc1ccc(NCCc2ccc(CCN3C[C@H](O)[C@@H](O)[C@H](O)[C@H]3CO)c3c2OCCO3)c([N+](=O)[O-])c1 [Compound 1173]', 'log10 IC50', 1.68),
  ('[N-]=[N+]=Nc1ccc(NCCN2CCN(CCN3C[C@H](O)[C@@H](O)[C@H](O)[C@H]3CO)CC2)c([N+](=O)[O-])c1 [Compound 1273]', 'log10 IC50', 2.81),
  ('[N-]=[N+]=Nc1ccc(NCC[C@H]2CC[C@@H](CCN3C[C@H](O)[C@@H](O)[C@H](O)[C@H]3CO)CC2)c([N+](=O)[O-])c1 [Compound 1106]', 'log10 IC50', 1.49),
  ('O=[N+]([O-])c1cc(N2CCOCC2)ccc1NCc1cccc(CN2C[C@H](O)[C@@H](O)[C@H](O)[C@H]2CO)c1 [Compound 1067]', 'log10 IC50', 1.91);

Just for reference, patent US20250197372A1 is where these values come from.
